system: cynomolgus ARG2; experiment: Bio-Layer Interferometry (OctetRED) binding kinetics, cynomolgus ARG2; conditions: Fab as analyte; cyno ARG2 ligand; affinity-matured antibodies
Sequence (as listed by the source): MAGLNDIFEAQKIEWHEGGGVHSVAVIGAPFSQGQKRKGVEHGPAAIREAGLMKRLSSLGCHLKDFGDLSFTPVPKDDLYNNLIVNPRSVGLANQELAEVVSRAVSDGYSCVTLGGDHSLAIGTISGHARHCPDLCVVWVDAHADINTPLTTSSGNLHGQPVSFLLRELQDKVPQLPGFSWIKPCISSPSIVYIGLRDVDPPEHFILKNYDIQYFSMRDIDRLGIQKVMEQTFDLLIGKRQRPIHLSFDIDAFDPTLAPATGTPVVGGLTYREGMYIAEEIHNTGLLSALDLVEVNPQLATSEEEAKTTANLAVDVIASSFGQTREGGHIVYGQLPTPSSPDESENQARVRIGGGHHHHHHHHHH
measurement-kind: ka (M⁻¹ s⁻¹)
Report the value in M⁻¹ s⁻¹ with no unit label.

Query: Let me know recorded ka for C0021065: anti-ARG2 antibody, VH SEQ ID NO: 72, VL SEQ ID NO: 77 (antibody, listed as Homo sapiens, V domains shown, C0021065) VH: EVQLLESGGGLVQPGGSLRLSCAASGFTFSSYAMSWVRQAPGKGPEWVSAISGFSPYYADSVKGRFTISRDNSRNTLYLQMNSLRAEDTAVYYCARLRADLGLYMDLWGRGTLVTVSS VL: QSVLTQPPSVSAAPGQKVTISCSGSSSNIGNHYVSWYQQLPGTAPKLLIYDTDHMASGIPDRFSGSKSGTSATLGITGLQTGDEADYYCGTWDSSLSALVFGGGTKLTVL , thanks.
Response: 617000
